B1: STK38L (parent)
chain: FCIDSENRIGNSGVEEIKGHPFFE

- Variants of: B1
- ASSAY DETAILS: protein stability index of a GFP-peptide fusion (GPS, HEK-293T) (PSI 1-6); higher = more stable;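 also: lentivirally expressed fusions sorted by FACS into six bins by GFP to DsRed ratio, PSI derived from sequencing read proportions per bin multiplied by bin number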
- MEASUREMENT PARAMETERS: c terminus: a fixed tail appended
Assign class by protein stability index: not lower than 3 means met; lower than 3 means not met.

F22T = met
I17L = not met
G10W = not met
E16W = not met
C2Q = not met
F23N = met
E24Q = not met
R8D = met
H20D = not met
C2F = met
H20F = not met
I17E = met
I17Y = not met
E6M = not met
F23S = not met
E24F = not met
S12I = not met
I17C = not met
E24I = not met
S12K = not met
R8T = met
